Source: PubChem BioAssay (EPA / NIEHS)

assay_system: Transcription factor Sp1 (Homo sapiens)
assay_method_text: ATG_Sp1_CIS: Attagene CIS-FACTORIAL HepG2 Assay for human Specificity Protein 1 (Sp1) (AID 2282961)
reported_conditions: HepG2 Sp1 cis-reporter transcription, actives raise or lower the signal
Activity calls are given as the source filed them. The calls were made as follows: active = hit-call score of the fitted dose curve at least 0.9, where 1 is the maximum; inactive = score below 0.9.
Labels: active, inactive

INSERT INTO assay_data (molecule, class_label) VALUES
  ('CC1(C)[C@H](C(=O)OCc2cccc(Oc3ccccc3)c2)[C@@H]1C=C(Cl)Cl', 'inactive'),
  ('O=C=NC1CCC(CC2CCC(N=C=O)CC2)CC1 (centres undefined)', 'inactive'),
  ('CCC(=O)/C=C/C1C(C)=CCCC1(C)C (centres undefined)', 'inactive'),
  ('CC1CCC(C(C)CS)CC1S (centres undefined)', 'active'),
  ('CC(C)[C@H]1CC[C@@H](C)CC1=O', 'inactive'),
  ('C[C@H]1C[C@H]2[C@@H]3CCC4=CC(=O)C=C[C@]4(C)[C@@]3(F)[C@@H](O)C[C@]2(C)[C@@]1(O)C(=O)COP(=O)(O)O', 'inactive'),
  ('Cc1ccc(O)c(C(C)(C)C)c1', 'active'),
  ('O=C(O)c1ccc([N+](=O)[O-])cc1', 'inactive'),
  ('CC1(C)C(=O)N(Br)C(=O)N1Cl', 'inactive'),
  ('COc1cc(C=O)ccc1OC(=O)C(C)C', 'inactive'),
  ('C=CCOC(=O)CCC1CCCCC1', 'inactive'),
  ('Cc1ccc2ccccc2n1', 'inactive'),
  ('OCc1cccnc1', 'inactive'),
  ('CC(=O)Nc1ccc(C)cc1C', 'inactive');

###

assay_method_text: ATG_NFI_CIS: Attagene CIS-FACTORIAL HepG2 Assay for human Nuclear Factor I (NFI) (AID 2282989)
reported_conditions: HepG2 cis-regulatory reporter, NFI response element transcription; actives raise or lower the signal
Calls of active or inactive are those of the source. How the source made its calls: active means hit-call score of the fitted dose curve at least 0.9, where 1 is the maximum; inactive means score below 0.9.
Labels: true = active, false = inactive

INSERT INTO results (compound, class_label) VALUES
  ('C=C(C)C(=O)NCCCN(C)C', 'false'),
  ('CCC(C)(O)CCC=C(C)C (stereo not given)', 'false'),
  ('CN(C)CCCN', 'false'),
  ('CC(C)c1ccc(C(C)C)cc1', 'false'),
  ('O=C(O)C[C@H](O)C[C@H](O)/C=C/c1c(C2CC2)nc2ccccc2c1-c1ccc(F)cc1', 'false'),
  ('CCCCCCCCC', 'false'),
  ('NCCCN1CCOCC1', 'false'),
  ('O=C1C(c2[nH]c3ccc(S(=O)(=O)O)cc3c2O)=Nc2ccc(S(=O)(=O)O)cc21', 'false'),
  ('CCC(=O)/C=C/C1C(C)=CCCC1(C)C (stereo not given)', 'false'),
  ('CCN(CC)c1ccc(C(=C2C=CC(=[N+](CC)CC)C=C2)c2ccc(S(=O)(=O)O)cc2S(=O)(=O)[O-])cc1', 'false'),
  ('c1ccc(CCCc2ccccn2)cc1', 'false'),
  ('NCCOCCO', 'false'),
  ('CC(=O)c1c(C)cc(C(C)(C)C)cc1C', 'false'),
  ('COc1cc(C=O)ccc1OC(=O)C(C)C', 'false'),
  ('CCCC/C=C\CCCCCCCCCC=O', 'false'),
  ('COC(C(=O)O)c1ccccc1 (stereo not given)', 'false'),
  ('Nc1ccc(S(=O)(=O)O)c(N)c1', 'false'),
  ('Cc1c(N(C)C)c(=O)n(-c2ccccc2)n1C', 'false'),
  ('CCCCC(CC)COCCC#N (stereo not given)', 'false'),
  ('CCCC(=O)OCCC(C)CCC=C(C)C (stereo not given)', 'false'),
  ('CCCOCC(C)O (stereo not given)', 'false'),
  ('CCc1ccc(C=O)cc1', 'false'),
  ('CC1(C)CCC(C)(C)c2cc(C(=O)Nc3ccc(C(=O)O)cc3)ccc21', 'false'),
  ('CC1=CC(=O)NS(=O)(=O)O1', 'false'),
  ('CCCc1ccccc1O', 'false'),
  ('NC(=O)c1ccccc1Cl', 'true'),
  ('CCCC1CCC(=O)O1 (stereo not given)', 'false'),
  ('CCC(C(=O)NC(N)=O)c1ccccc1 (stereo not given)', 'false'),
  ('C=C(C)C(=O)O', 'false'),
  ('CC(C)=CCCC(C)=CCCC(C)=CCO', 'false'),
  ('NC(=O)Nc1ccc(Cl)cc1', 'false'),
  ('CC1=CCC2C(C1)C2(C)C (stereo not given)', 'false'),
  ('COc1cc(C(C)(C)C)c(O)c(C(C)(C)C)c1', 'false'),
  ('CCCC(=O)c1cc(O)c(O)cc1O', 'false'),
  ('CC1(C)[C@@H]2CC[C@@]1(C)[C@H](O)C2', 'false'),
  ('C=CC[N+](C)(C)CC=C', 'false'),
  ('O=C(O)CCSCCC(=O)O', 'false'),
  ('NCCNCCN', 'false'),
  ('CNC(=O)Oc1ccc2c(c1)[C@]1(C)CCN(C)[C@@H]1N2C', 'false'),
  ('Clc1cccc(Cl)n1', 'false'),
  ('CC(=O)OCCOC(C)=O', 'false'),
  ('Nc1nc2ccc([N+](=O)[O-])cc2s1', 'false'),
  ('CC(C)(Oc1ccc(CCNC(=O)c2ccc(Cl)cc2)cc1)C(=O)O', 'false'),
  ('COc1ccc(Cl)cc1C', 'false'),
  ('C=CC(C)(O)CCC=C(C)CCC=C(C)C (stereo not given)', 'true'),
  ('CCCCCCCCC=O', 'false'),
  ('BrC1CCC(Br)C(Br)CCC(Br)C(Br)CCC1Br (stereo not given)', 'true'),
  ('OC1C(O)C(O)C(O)C(O)C1O (stereo not given)', 'false'),
  ('CC1(C)[C@H](C(=O)OCc2cccc(Oc3ccccc3)c2)[C@@H]1C=C(Cl)Cl', 'false'),
  ('CO[Si](CCCn1c(=O)n(CCC[Si](OC)(OC)OC)c(=O)n(CCC[Si](OC)(OC)OC)c1=O)(OC)OC', 'false'),
  ('c1ccc2c(c1)c1cccc3ccc4cccc2c4c31', 'false'),
  ('O=C=NC1CCC(CC2CCC(N=C=O)CC2)CC1 (stereo not given)', 'false'),
  ('CC(=O)C=CC1=C(C)CCCC1(C)C', 'false'),
  ('O=C(O)CCCCCCCCCCC(=O)O', 'false'),
  ('CC(C)C(C)(C)C(C)(C)C(C)(C)S', 'false'),
  ('CCCCOCCOCCOCCOCCO', 'false'),
  ('CCCCOCCOCCSC#N', 'false'),
  ('C=C(C)[C@@H]1CC[C@@H](C)C[C@@H]1O', 'false'),
  ('CCCCc1ccc(N)cc1', 'false'),
  ('OCCOCCOCCOCCO', 'false');

###

Test system: TTR (gene 7276)
assay_method_text: CCTE_GLTED_hTTR_0.125uM: CCTE's human Transthyretin (hTTR) Inhibition Assay, with 0.125uM TTR, Great Lakes Toxicology and Ecology Division (GLTED) Lab (AID 2284431);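 also: hits lower the fluorescence signal relative to DMSO baseline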
Calls of active or inactive are those of the source. How the source made its calls: active means hit-call score of the fitted dose curve at least 0.9, where 1 is the maximum; inactive means score below 0.9.
measured_metric: AC50

INSERT INTO measurements (mol, meas_value) VALUES
  ('CSc1nc(NC2CC2)nc(NC(C)(C)C)n1', '10.8 µM (active)'),
  ('O=Nc1ccc(Nc2ccccc2)cc1', '7.46 µM (active)'),
  ('O=c1cc(-c2ccccc2)oc2cc(O)cc(O)c12', '0.06 µM (active)'),
  ('CC(C)=CCCC(C)=CCCC(C)=CCO', '19.9 µM (active)');

###

assay_method_text: BSK_BE3C_SRB: Viability Assessment in the BioMAP Diversity Plus: BE3C Assay (AID 2283028);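 also: measured 24 h after chemical dosing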
reported_conditions: primary human bronchial epithelial cells
The source made the active and inactive calls. The calls were made as follows: active = hit-call score of the fitted dose curve at least 0.9, where 1 is the maximum; inactive = score below 0.9.
Labels: active, inactive

INSERT INTO assay_data (molecule, class_label) VALUES
  ('O=C1CCCCCCCCCCCCCCO1', 'active'),
  ('O=C(O)c1cn(C2CC2)c2cc(N3CCNCC3)c(F)cc2c1=O', 'inactive'),
  ('Cc1ccc(Nc2ccc(O)c3c2C(=O)c2ccccc2C3=O)cc1', 'inactive'),
  ('Cc1ccc2n[nH]nc2c1', 'inactive'),
  ('O=P(c1ccccc1)(c1ccccc1)c1ccccc1', 'inactive'),
  ('C#C[C@]1(O)CC[C@H]2[C@@H]3CCC4=Cc5oncc5C[C@]4(C)[C@H]3CC[C@@]21C', 'inactive'),
  ('O=C(O)c1ccc([N+](=O)[O-])cc1', 'inactive'),
  ('OC1OC[C@@H](O)[C@H](O)[C@H]1O (some centres not stated)', 'inactive'),
  ('OC[C@H]1O[C@H](O[C@]2(CCl)O[C@H](CCl)[C@@H](O)[C@@H]2O)[C@H](O)[C@@H](O)[C@H]1Cl', 'inactive'),
  ('CC(=O)O[C@]1(C(C)=O)CC[C@H]2[C@@H]3C[C@H](C)C4=CC(=O)CC[C@]4(C)[C@H]3CC[C@@]21C', 'inactive'),
  ('NCCNCCN', 'inactive'),
  ('CC1CCC(C(C)CS)CC1S (configuration not stated)', 'active');
